# target under test: SOS1:KRAS (G12C) interaction (Homo sapiens (Human))
# Sequence (Q07889 564-1049, stated change not applied): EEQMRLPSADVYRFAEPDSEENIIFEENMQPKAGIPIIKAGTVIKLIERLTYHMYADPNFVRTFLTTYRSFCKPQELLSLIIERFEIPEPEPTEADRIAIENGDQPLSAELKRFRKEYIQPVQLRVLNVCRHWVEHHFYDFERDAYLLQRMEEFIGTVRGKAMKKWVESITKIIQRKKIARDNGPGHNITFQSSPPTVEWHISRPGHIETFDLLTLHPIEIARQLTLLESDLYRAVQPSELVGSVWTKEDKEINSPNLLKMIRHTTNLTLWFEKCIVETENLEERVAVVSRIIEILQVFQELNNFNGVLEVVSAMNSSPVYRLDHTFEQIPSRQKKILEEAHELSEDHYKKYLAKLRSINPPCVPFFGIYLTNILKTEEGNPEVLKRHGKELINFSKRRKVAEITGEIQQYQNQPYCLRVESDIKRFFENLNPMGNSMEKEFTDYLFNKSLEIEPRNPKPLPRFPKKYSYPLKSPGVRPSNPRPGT
# protocol notes: SOS1-KRas(G12C) FRET Assay
# condition set: 0.5 nM His10-SOS1 (res. 564-1049), 2.5 nM GST-KRAS (res. 1-169, G12C); read-out: SOS-KRas(G12C) FRET IC50
Reported pIC50 values for the following compounds.
Bear in mind: pIC50 is minus log10 of a mol/L concentration; give just that figure.

// known answers, use as guide
compound: C[C@@H](Nc1nn(C)c(=O)c2cc(=O)n([C@@]3(C(F)F)CCOC3)cc12)c1cccc(C(F)F)c1F (single isomer, unassigned) [Example 119]
pIC50: 6.39
//
compound: C[C@@H](Nc1nn(C)c(=O)c2cc(=O)n([C@@]3(C(F)(F)F)CCN(C)C3)cc12)c1cccc(C(F)F)c1F (single isomer, unassigned) [Example 97]
pIC50: 7.18
//
compound: Cc1c([C@@H](C)Nc2nn(C)c(=O)c3cc(=O)n(C4CCN(C)CC4)cc23)cccc1C(F)(F)F [Example 23]
pIC50: 5.71
//
compound: COC1(C(=O)N2CC(C)(n3cc4c(N[C@H](C)c5cccc(C(F)F)c5F)nn(C)c(=O)c4cc3=O)C2)CC1 [Example 151]
pIC50: 6.25
//
compound: C[C@@H](Nc1nn(C)c(=O)c2cc(=O)n([C@]3(C(F)F)CCOC3)cc12)c1cccc(C(F)F)c1F (single isomer, unassigned) [Example 120]
pIC50: 7.70
//
compound: C[C@@H](Nc1nn(C)c(=O)c2cc(=O)n(C3(C)CNC3)cc12)c1cccc(C(F)F)c1F [Example 152]
pIC50: 6.61
//
compound: COc1c(=O)n(C2CCOCC2)cc2c(N[C@H](C)c3cccc(C(C)(F)F)c3F)nn(C)c(=O)c12 [Example 37]
pIC50: 7.52
//
compound: C[C@@H](Nc1nn(C)c(=O)c2cc(=O)n([C@]3(C(F)(F)F)CCOC3)cc12)c1cccc(C(F)F)c1F (single isomer, unassigned) [Example 165]
pIC50: 6.37

# input Dear colleague, I am looking for the recorded pIC50 of the following compound: C[C@@H](Nc1nn(C)c(=O)c2cc(=O)n(C3(C)CN(C(=O)C4(F)CC4)C3)cc12)c1cccc(C(F)F)c1F [Example 153]
# output 7.06

# input And for COC(C)(C)C(F)(F)c1cccc([C@@H](C)Nc2nn(C)c(=O)c3cc(=O)n(C4CC4)cc23)c1F [Example 109] ?
# output 6.92

# input And for CC(=O)N1CC[C@@](n2cc3c(N[C@H](C)c4cccc5c(F)coc45)nn(C)c(=O)c3cc2=O)(C(F)(F)F)C1 (single isomer, unassigned) [Example 172] ?
# output 7.86

# input And for C[C@@H](Nc1nn(C)c(=O)c2cc(=O)n([C@]3(C(F)(F)F)CCOC3)cc12)c1cccc2c(F)coc12 (single isomer, unassigned) [Example 167] ?
# output 6.22

# input And for CC(=O)N1CC[C@](C)(n2cc3c(N[C@H](C)c4cccc(C(F)F)c4F)nn(C)c(=O)c3cc2=O)C1 (single isomer, unassigned) [Example 144] ?
# output 6.68

# input And for C[C@@H](Nc1nn(C)c(=O)c2cc(=O)n([C@@]3(C)CCOC3)cc12)c1cccc(C(F)F)c1F (single isomer, unassigned) [Example 52] ?
# output 6.57

# input And for C[C@@H](Nc1nn(C)c(=O)c2cc(=O)n(C3(C(F)F)CC3)cc12)c1cccc2c1OCCC2(F)F [Example 180] ?
# output 6.75

# input And for Cn1nc(N[C@@H](c2cccc(C(F)(F)F)c2)C(F)F)c2cn(C3CC3)c(=O)cc2c1=O [Example 111] ?
# output 6.20
